Source listed as ChEMBL document CHEMBL5335780.

- system: Mitogen-activated protein kinase kinase kinase 9 (Homo sapiens)
- Sequence (P80192 whole entry): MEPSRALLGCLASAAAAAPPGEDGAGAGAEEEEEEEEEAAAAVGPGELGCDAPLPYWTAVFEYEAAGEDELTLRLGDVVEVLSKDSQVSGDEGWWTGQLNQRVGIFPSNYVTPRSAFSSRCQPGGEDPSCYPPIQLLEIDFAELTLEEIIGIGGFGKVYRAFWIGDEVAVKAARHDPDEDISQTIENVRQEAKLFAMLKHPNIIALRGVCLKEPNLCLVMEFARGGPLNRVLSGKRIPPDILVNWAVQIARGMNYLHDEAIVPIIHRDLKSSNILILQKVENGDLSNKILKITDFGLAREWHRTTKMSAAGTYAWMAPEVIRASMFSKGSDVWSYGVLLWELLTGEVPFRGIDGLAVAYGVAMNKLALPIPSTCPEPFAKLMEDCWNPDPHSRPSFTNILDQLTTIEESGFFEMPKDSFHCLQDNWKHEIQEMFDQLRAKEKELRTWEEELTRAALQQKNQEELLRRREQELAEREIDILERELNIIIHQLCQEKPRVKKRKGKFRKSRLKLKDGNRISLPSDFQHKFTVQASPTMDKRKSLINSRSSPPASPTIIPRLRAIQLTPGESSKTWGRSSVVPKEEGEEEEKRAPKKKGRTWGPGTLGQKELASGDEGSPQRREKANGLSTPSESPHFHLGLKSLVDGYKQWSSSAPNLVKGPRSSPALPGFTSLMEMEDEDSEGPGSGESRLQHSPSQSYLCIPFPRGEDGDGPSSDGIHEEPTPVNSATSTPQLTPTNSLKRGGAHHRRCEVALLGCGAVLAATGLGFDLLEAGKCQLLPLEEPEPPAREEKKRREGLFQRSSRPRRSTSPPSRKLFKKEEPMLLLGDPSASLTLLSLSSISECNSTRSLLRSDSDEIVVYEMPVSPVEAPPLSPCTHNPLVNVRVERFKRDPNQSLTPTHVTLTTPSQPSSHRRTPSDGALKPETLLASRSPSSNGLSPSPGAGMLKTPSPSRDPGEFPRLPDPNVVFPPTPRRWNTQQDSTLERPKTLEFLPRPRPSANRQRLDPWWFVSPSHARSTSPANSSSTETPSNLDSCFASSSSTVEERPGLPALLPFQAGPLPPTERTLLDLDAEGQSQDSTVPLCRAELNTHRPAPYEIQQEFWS
- assay-summary: Inhibition of MLK1 (unknown origin)
pIC50: −log10 of the molar value.

smiles-notation: OCCN1CCN(Cc2ccc(-c3cnc4[nH]cc(-c5cccc(Cl)c5)c4c3)cc2)CC1
pIC50: 7.35

###

- system: Mitogen-activated protein kinase kinase kinase 11 (Homo sapiens)
- Sequence (Q16584 whole entry): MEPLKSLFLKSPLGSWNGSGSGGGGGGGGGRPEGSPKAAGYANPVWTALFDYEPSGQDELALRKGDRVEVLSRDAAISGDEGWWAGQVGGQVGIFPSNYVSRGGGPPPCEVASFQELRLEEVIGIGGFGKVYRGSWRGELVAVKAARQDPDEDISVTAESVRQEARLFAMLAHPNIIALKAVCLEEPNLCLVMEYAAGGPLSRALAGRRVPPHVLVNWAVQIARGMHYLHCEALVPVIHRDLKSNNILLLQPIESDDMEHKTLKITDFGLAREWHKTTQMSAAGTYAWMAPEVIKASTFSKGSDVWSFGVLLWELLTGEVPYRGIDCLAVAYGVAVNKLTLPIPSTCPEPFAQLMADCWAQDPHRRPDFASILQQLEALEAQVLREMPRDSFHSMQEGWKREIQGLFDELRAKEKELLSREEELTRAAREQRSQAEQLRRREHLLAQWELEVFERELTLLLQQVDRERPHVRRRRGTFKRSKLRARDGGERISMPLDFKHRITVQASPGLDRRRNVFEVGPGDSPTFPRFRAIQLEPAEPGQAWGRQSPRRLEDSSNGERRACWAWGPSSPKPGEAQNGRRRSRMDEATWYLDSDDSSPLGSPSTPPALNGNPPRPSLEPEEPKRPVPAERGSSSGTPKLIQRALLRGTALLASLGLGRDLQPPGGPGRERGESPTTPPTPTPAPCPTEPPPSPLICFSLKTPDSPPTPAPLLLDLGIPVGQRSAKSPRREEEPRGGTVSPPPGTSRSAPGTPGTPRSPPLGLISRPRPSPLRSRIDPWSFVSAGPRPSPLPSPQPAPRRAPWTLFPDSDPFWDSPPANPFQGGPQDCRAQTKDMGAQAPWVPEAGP
- assay-summary: Inhibition of MLK3 (unknown origin)
assay-metric: IC50 (nM)

smiles-notation: OCCN1CCN(Cc2ccc(-c3cnc4[nH]cc(-c5cccc(Cl)c5)c4c3)cc2)CC1
meas-value: 23.7
